target: CLK3 (Homo sapiens); construct: purchased Thermo Fisher Scientific; experiment: Kinase panel study; type: biochemical; conditions: CLK3; compound at 10µM
Sequence (P49761 whole entry): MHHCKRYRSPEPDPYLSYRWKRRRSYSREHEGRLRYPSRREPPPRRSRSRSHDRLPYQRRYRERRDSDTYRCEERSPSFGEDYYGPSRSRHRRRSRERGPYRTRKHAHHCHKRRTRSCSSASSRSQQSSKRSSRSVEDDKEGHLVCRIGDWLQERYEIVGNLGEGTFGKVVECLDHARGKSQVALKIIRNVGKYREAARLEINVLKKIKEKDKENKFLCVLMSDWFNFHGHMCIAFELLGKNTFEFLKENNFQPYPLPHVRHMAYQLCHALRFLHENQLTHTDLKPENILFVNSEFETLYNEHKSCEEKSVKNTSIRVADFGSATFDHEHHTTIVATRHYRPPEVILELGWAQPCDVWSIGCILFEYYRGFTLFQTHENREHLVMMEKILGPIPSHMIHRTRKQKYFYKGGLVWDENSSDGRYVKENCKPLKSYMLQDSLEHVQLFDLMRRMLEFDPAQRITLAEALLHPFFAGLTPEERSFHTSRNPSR
measure name: inhibition at 10 µM (%)
Answer format: numeric, % implied, no suffix.

[[record]]
molecule = "COc1ccc2c(c1)c1ccnc3c4nc(OC)ccc4c(=O)n2c13"
units_text = "%"
value = 9

[[record]]
molecule = "O=c1c2cc(O)ccc2c2nccc3c4cc(O)ccc4n1c32"
units_text = "%"
value = 35

[[record]]
molecule = "COc1ccc2c(c1)c1ccnc3c4ccnc(OC)c4c(=O)n2c13"
units_text = "%"
value = 7

[[record]]
molecule = "COc1ccc2nc3c(cc2c1)c(N)nn3C(=O)c1cccc(N(C)C)c1 [MW05-E2]"
units_text = "%"
value = 5


Shifting focus to the molecule that follows.
The recorded inhibition at 10 µM for entry O=c1c2cnccc2c2nccc3c4cc(O)ccc4n1c32 equals 35

---

inhibition at 10 µM values, listed per item
Target: DYRK1A (Homo sapiens, UniProt Q13627)
Construct: purchased Thermo Fisher Scientific
Test: Kinase panel study
Type: biochemical
Conditions: DYRK1A; compound at 10µM; read-out: % of Inhibition
Protocol: The Kinase panel study was entirely provided by Thermo Fisher Scientific using the two lead compounds MW01 and MW05 as well as their derivatives (MW01-E06, MW01-E10, MW01-E14, MW01-E18, MW05-E2, MW05-E3, MW05-E9 and MW05-E10. The experiment was performed using the ZLyte or Adapta protocol according to manufacturer standard operating procedures. […]
Answer format: numeric, % implied, no suffix.

[[record]]
compound = "COc1ccc2nc3c(cc2c1)c(N)nn3C(=O)c1cccc(N(C)C)c1 [MW05-E2]"
measure_name = "inhibition at 10 µM"
value = 53

[[record]]
compound = "COc1ccc2c(c1)c1ccnc3c4nc(OC)ccc4c(=O)n2c13"
measure_name = "inhibition at 10 µM"
value = 14

[[record]]
compound = "O=c1c2cc(O)ccc2c2nccc3c4cc(O)ccc4n1c32"
measure_name = "inhibition at 10 µM"
value = 56

[[record]]
compound = "COc1ccc2c(c1)c1ccnc3c4ccnc(OC)c4c(=O)n2c13"
measure_name = "inhibition at 10 µM"
value = 12


Shifting focus to the compound that follows.
The recorded inhibition at 10 µM for entry O=c1c2cnccc2c2nccc3c4cc(O)ccc4n1c32 equals 65

---

target: PIK3CG (p11 0 gamma) (Homo sapiens, UniProt P48736); construct: purchased Thermo Fisher Scientific; experiment: Kinase panel study; format: biochemical; conditions: PIK3CG; compound at 10µM; read-out: % of Inhibition
Sequence (P48736 whole entry): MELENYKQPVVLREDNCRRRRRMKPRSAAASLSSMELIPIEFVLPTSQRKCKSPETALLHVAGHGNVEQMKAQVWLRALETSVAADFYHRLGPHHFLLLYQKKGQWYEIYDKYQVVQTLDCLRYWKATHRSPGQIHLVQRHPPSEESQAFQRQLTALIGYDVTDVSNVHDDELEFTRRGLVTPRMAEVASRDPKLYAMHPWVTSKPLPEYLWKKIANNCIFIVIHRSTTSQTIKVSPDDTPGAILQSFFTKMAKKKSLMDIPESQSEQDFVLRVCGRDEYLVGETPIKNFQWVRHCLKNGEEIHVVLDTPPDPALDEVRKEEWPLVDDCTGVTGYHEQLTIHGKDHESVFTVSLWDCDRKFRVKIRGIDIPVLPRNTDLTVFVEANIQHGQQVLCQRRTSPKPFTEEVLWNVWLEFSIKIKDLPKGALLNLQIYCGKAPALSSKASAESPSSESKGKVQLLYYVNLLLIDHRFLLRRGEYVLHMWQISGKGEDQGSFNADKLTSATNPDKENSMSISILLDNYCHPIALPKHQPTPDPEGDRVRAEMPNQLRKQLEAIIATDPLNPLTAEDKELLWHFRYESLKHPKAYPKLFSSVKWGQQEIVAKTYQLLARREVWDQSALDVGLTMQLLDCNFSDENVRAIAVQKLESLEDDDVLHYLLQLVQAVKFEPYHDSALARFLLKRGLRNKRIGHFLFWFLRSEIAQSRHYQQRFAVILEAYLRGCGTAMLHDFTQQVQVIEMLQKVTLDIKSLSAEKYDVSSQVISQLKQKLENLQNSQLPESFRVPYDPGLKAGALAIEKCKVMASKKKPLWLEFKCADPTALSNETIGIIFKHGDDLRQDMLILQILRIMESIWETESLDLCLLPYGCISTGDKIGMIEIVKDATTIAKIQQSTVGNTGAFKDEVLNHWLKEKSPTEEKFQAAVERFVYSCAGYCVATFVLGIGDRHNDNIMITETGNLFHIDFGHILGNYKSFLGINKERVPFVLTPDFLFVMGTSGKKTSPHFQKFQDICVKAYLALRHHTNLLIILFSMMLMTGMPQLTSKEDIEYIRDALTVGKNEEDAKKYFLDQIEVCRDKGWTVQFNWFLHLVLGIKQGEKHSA
measure name: inhibition at 10 µM

Example results:
[[record]]
compound = "COc1ccc2c(c1)c1ccnc3c4nc(OC)ccc4c(=O)n2c13"
measure_name = "inhibition at 10 µM"
value = "-1%"

[[record]]
compound = "COc1ccc2nc3c(cc2c1)c(N)nn3C(=O)c1cccc(N(C)C)c1 [MW05-E2]"
measure_name = "inhibition at 10 µM"
value = "2%"

[[record]]
compound = "COc1ccc2c(c1)c1ccnc3c4ccnc(OC)c4c(=O)n2c13"
measure_name = "inhibition at 10 µM"
value = "49%"

[[record]]
compound = "O=c1c2cc(O)ccc2c2nccc3c4cc(O)ccc4n1c32"
measure_name = "inhibition at 10 µM"
value = "93%"


Shifting focus to the compound that follows.
The recorded inhibition at 10 µM for entry O=c1c2cnccc2c2nccc3c4cc(O)ccc4n1c32 equals 99%

---

target: PRKCN (PKD3) (Homo sapiens); construct: purchased Thermo Fisher Scientific; assay: Kinase panel study; assay type: biochemical; settings: PRKCN (PKD3); compound at 10µM; read-out: % of Inhibition
Sequence (O94806 whole entry): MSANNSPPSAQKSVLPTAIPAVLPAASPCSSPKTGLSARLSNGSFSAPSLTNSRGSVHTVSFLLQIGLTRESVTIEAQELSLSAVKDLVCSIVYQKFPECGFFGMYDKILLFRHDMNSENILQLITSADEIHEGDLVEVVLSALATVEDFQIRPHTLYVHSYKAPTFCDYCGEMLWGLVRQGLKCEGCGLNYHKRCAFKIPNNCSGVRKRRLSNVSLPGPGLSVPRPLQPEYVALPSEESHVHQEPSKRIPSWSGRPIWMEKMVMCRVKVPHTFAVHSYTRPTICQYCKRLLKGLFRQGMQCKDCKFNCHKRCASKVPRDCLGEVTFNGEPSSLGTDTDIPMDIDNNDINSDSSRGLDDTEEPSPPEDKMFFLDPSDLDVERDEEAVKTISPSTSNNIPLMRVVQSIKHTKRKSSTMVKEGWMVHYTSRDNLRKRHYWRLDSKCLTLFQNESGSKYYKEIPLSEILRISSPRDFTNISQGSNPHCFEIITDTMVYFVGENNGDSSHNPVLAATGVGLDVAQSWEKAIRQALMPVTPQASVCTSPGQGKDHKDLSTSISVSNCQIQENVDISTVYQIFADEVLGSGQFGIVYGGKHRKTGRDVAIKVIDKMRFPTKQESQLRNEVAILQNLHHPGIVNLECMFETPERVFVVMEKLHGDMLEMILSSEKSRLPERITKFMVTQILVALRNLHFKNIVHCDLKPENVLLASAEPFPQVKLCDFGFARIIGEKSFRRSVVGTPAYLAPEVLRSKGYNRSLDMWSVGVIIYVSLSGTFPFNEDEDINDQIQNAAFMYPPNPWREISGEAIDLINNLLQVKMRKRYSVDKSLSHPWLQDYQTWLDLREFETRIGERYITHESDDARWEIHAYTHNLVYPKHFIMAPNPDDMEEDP
measure name: inhibition at 10 µM (%)
Answer format: numeric, % implied, no suffix.

Example results:
[[record]]
compound = "O=c1c2cnccc2c2nccc3c4cc(O)ccc4n1c32"
system_name = "PRKCN (PKD3) (Homo sapiens)"
measure_name = "inhibition at 10 µM"
value = 52

[[record]]
compound = "COc1ccc2c(c1)c1ccnc3c4ccnc(OC)c4c(=O)n2c13"
system_name = "PRKCN (PKD3) (Homo sapiens)"
measure_name = "inhibition at 10 µM"
value = -1

[[record]]
compound = "COc1ccc2nc3c(cc2c1)c(N)nn3C(=O)c1cccc(N(C)C)c1 [MW05-E2]"
system_name = "PRKCN (PKD3) (Homo sapiens)"
measure_name = "inhibition at 10 µM"
value = 7

[[record]]
compound = "O=c1c2cc(O)ccc2c2nccc3c4cc(O)ccc4n1c32"
system_name = "PRKCN (PKD3) (Homo sapiens)"
measure_name = "inhibition at 10 µM"
value = 74


Shifting focus to the compound that follows.
The recorded inhibition at 10 µM for entry COc1ccc2c(c1)c1ccnc3c4nc(OC)ccc4c(=O)n2c13 equals -8
